# assay procedure: Test of in vivo distribution of F-18-labeled compounds (concentration in brain, passage through blood-brain barrier)
# Design: unit not given here
# conditions: SD rats, 2 minutes
Below is a list of entries, each paired with its recorded Concentration in brain of rats, At 2 minutes ([2 min]) value.
Just the number, please, no unit attached.

Entry CNc1cccc(-c2nc3ccc(OCC(O)C[18F])cc3s2)c1 (racemic) : reported Concentration in brain of rats, At 2 minutes ([2 min]) = ?
15.7

Entry CNc1ccc(-c2cc3ccc(OCCC[18F])cc3s2)cc1 [Control, reference compound] : reported Concentration in brain of rats, At 2 minutes ([2 min]) = ?
2.02

Entry CNc1ccc(-c2cc3ccc(OCC(O)C[18F])cc3s2)cn1 (racemic) : reported Concentration in brain of rats, At 2 minutes ([2 min]) = ?
16.5

Entry CNc1ccc(-c2nc3ccc(OCC(O)C[18F])cc3s2)cn1 (racemic) : reported Concentration in brain of rats, At 2 minutes ([2 min]) = ?
6.5

meta.source: patent US9133143B2
